Molecular target: Human plasma SSAO (Homo sapiens, UniProt Q16853)
Construct: The enzyme suspension prepared from blood plasma was pre-incubated with a control compound; from tissue; host or cells: human blood plasma
Sequence (Q16853 27-763 limits assumed): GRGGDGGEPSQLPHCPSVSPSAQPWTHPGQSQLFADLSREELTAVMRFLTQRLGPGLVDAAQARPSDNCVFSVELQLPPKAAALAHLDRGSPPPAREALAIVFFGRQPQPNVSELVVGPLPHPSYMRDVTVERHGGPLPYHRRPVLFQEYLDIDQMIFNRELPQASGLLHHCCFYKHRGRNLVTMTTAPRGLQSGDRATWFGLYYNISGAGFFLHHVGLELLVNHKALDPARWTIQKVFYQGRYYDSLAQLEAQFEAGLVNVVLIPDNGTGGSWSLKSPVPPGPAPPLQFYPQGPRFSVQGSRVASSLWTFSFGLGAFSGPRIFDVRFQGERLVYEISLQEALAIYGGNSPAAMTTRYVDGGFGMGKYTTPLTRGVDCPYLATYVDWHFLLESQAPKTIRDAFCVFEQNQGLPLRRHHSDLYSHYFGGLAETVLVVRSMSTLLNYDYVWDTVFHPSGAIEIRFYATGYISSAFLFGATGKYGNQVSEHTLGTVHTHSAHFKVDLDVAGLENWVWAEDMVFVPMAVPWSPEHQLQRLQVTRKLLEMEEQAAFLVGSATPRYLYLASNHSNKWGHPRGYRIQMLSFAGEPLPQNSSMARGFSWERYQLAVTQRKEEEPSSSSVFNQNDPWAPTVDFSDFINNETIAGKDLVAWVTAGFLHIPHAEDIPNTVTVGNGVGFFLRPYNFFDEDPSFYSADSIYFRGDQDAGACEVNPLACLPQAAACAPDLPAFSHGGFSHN
Test: VAP-1 enzyme (SSAO) activity in human plasma, radiochemical-enzyme assay with 14C-benzylamine
Format: biochemical
Settings: human plasma enzyme suspension; pre-incubation 30 min at room temperature; 14C-benzylamine 2×10^−5 mol/l, 37° C., 1 hour; read-out: Inhibitory effect (IC50 values, μM) Human plasma SSAO
Counter-ions that a name gives are not always drawn.
value.kind: IC50 (µM)
Numbers only, in µM.

As a guide, the following entries are already answered.
CC(=O)Nc1nc(CCc2ccc(NC(=N)N)cc2)c(Cc2cccc(S(C)(=O)=O)c2)s1 : 0.016
CC(=O)Nc1nc(CCc2ccc(NC(=N)N)cc2)c(CN(C)C(=O)c2ccc(S(C)(=O)=O)cc2)s1 [Production Example 16, hydrochloride] : 0.012
CC(=O)Nc1nc(CCc2ccc(NC(=N)N)cc2)c(Cc2ccc(S(N)(=O)=O)cc2)s1 [Production Example 3, hydrochloride] : 0.0045
CC(=O)Nc1nc(CCc2ccc(CC(=O)NC(=N)N)cc2)cs1 : 0.0026
CC(=O)Nc1nc(CCc2ccc(NC(=N)N)cc2)c(CN2CC[C@H](C(=O)N(C)C)C2)s1 [Production Example 14, dihydrochloride] : 0.014
CC(=O)Nc1nc(CCc2ccc(NC(=N)N)cc2)c(CN2CC[C@@H](C(=O)N(C)C)C2)s1 [Production Example 12, dihydrochloride] : 0.019
CC(=O)Nc1nc(CCc2ccc(NC(=N)N)cc2)cs1 [Reference Example 1, reference compound] : 0.033
CC(=O)Nc1nc(CCc2ccc(CCNC(=N)N)cc2)cs1 : 0.0057

Give IC50 for all compounds that follow.
1. CC(=O)Nc1nc(CCc2ccc(NC(=N)N)cc2)c(CN(C)C(=O)c2ccc([N+](=O)[O-])cc2)s1 [Production Example 19, hydrochloride]
2. CC(=O)Nc1nc(-c2ccc(CCCCNC(=N)N)cc2)cs1 [Production Example 7, hydrochloride]

Result:
[0.032, 0.015]
